system: IGROV1 ovarian; experiment: NCI-60 one-dose screen, 48 h (100 = growth as untreated, 0 = no growth, -100 = all killed); details: 10 µM
About 83,000 compounds went through this panel and 20% of them were active in at least one assay; those are over-represented in the sample as a whole.
Simple rule here: growth less than 50% is 1.0, otherwise 0.0.

[[record]]
smilesrepresentation = "COc1ccc(C(=O)CSc2nnc(-c3c[nH]c4ccccc34)n2-c2ccccc2)cc1"
labelclass = 0.0

[[record]]
smilesrepresentation = "CC(C)CCSc1nc(NC2CC2)c(C#N)c(-c2ccc(C(C)C)cc2)n1"
labelclass = 0.0

[[record]]
smilesrepresentation = "CN1CCN(c2ccc(C(=O)/C=C/c3cc(Br)ccc3F)cc2)CC1"
labelclass = 1.0

[[record]]
smilesrepresentation = "CCCCOc1ccc(Nc2nc3ccccc3nc2Nc2ccc(OCCCC)cc2)cc1"
labelclass = 0.0

[[record]]
smilesrepresentation = "O=c1cc(-c2ccccc2)oc2cc(OCCCCNCc3ccccc3)cc(O)c12"
labelclass = 0.0

[[record]]
smilesrepresentation = "O=c1[nH]c2ccccc2cc1CSc1ccc(Nc2nccc(-c3ccc4c(c3)OCO4)n2)cc1"
labelclass = 0.0

[[record]]
smilesrepresentation = "COc1ccc(CCN2C(=O)/C(=C/c3csc(C#N)n3)SC2=S)cc1"
labelclass = 1.0

[[record]]
smilesrepresentation = "Cn1cc(/C=N/Nc2cccc(Cl)n2)c2ccccc21"
labelclass = 1.0

[[record]]
smilesrepresentation = "CN1CCN(Cc2ccc(C(=O)Nc3cccc(Nc4ccc5c(O)cccc5n4)c3)cc2C(F)(F)F)CC1"
labelclass = 1.0

[[record]]
smilesrepresentation = "Cc1ccc(S(=O)(=O)c2nc(-c3ccccc3)oc2S(=O)(=O)CC(=O)N2CCCC2)cc1"
labelclass = 1.0

[[record]]
smilesrepresentation = "CCCCSc1nc(Nc2ccc(/C(C)=N/NC(N)=S)cc2)c(C#N)c(-c2ccccc2)n1"
labelclass = 0.0

[[record]]
smilesrepresentation = "CCN1CCN(Cc2ccc(NC(=O)c3cccc(-n4cc(-c5ccc(NC(C)=O)nc5)nn4)c3)cc2C(F)(F)F)CC1"
labelclass = 0.0

[[record]]
smilesrepresentation = "CN1CCCN(Cc2ccc(C(=O)Nc3cccc(Nc4ccc5cc(O)ccc5n4)c3)cc2C(F)(F)F)CC1"
labelclass = 0.0

[[record]]
smilesrepresentation = "Brc1ccc(/C=C/c2n(Cc3ccc4ccccc4c3)c3ccccc3[n+]2Cc2ccc3ccccc3c2)cc1"
labelclass = 1.0

[[record]]
smilesrepresentation = "COc1ccc(-c2ccc(/C=N/NC(=O)c3[nH]c4ccc(Br)cc4c3-c3ccccc3)s2)cc1"
labelclass = 0.0

[[record]]
smilesrepresentation = "O=S(=O)(Nc1ncccn1)c1ccc(-n2c(-c3ccc(Br)cc3)nc(-c3ccccc3)c2-c2ccccc2)cc1"
labelclass = 0.0

[[record]]
smilesrepresentation = "O=c1[nH]c2ccc(Cl)cc2cc1CSc1ccc(Nc2nccc(-c3ccc(Cl)cc3)n2)cc1"
labelclass = 0.0

[[record]]
smilesrepresentation = "CN(C)c1ccc(/C=C/c2nc3ccccc3c(=O)n2CC(=O)Nc2ccccc2)cc1"
labelclass = 0.0


###

system: NCI-H460 lung; assay: NCI-60 one-dose screen, 48 h (100 = growth as untreated, 0 = no growth, -100 = all killed); conditions: 10 µM
This is part of a sample that, as a whole, favours compounds with a hit. Of some 83,000 tested, about 20% had one in any assay.
The following compounds are shown together with reported growth values.
readoutKind: growth (%)

[[record]]
compound = "COc1ccc2nc(Cl)c(-c3cc(-c4ccccc4)nc(=S)[nH]3)cc2c1"
numericreadout = 90.4

[[record]]
compound = "O=C(c1ccc(O)cc1)C1[C@H](c2ccccc2Br)[C@@H](c2ccccc2)NC12C(=O)Nc1ccc(Cl)cc12 (some centres undefined)"
numericreadout = 9.99

[[record]]
compound = "O=c1cc(-c2ccccc2)oc2cc(OCCCNCc3ccccc3)cc(O)c12"
numericreadout = -53.4

[[record]]
compound = "C=C(C)[C@@H]1CC[C@]2(COP(=O)(OCC)OCC)CC[C@]3(C)[C@H](CC[C@@H]4[C@@](C)(CCCN)[C@H](C(=C)C)CC[C@]43C)[C@@H]12"
numericreadout = 8.95

